# tested.on: pre-pro-insulin glargine
Could you please report measured desThr for the items listed next?
Be sure to follow the number with its unit.

protein: trypsin variant SEQ ID NO: 111 (protein) IVGGYTCAANSIPYQVSLNSGSHRCGGSLINSQWVVSAAHCYKPRIQVRLGEHNIHVLEGNEQFINAAKIITHPNFNPNTLDNDIMLIKLSSPATLNSHVATVSLPTSCAAAGTECLISGWGNTSSSGSSYPSLLQCLKAPVLSDSSCKSSYPGQITGNMICVGFLEGGADACQGDSGGPVVCNGQLQGIVSSGYGCAQKNKPGVYTKVCNYVNWIQQTIAAN
observed.value: 2.6 area %

Now examine the next entry.
Item trypsin variant SEQ ID NO: 25 (protein) IVGGYTCAANSIPYQVSLNSGSHRCGGSLINSQWVVSAAHCYKSRIQVRLGEHNIDVLEGNEQFINAAKIITHPNFNGNTLDNDIMLIKLSSPATLNSRVATVSLPRSCAAAGTECLISGWGNTKSSGSSYPSLLQCLKAPVLSDSSCKSSYPGQITGNMICVGFLEGGADACQGDSGGPVVCNGQLQGIVSSGYGCAQKNKPGVYTKVCNYVNWIQQTIAAN has what recorded desThr?
2.8 area %
